Target: T1, recombinant human VEGF165 (human, UniProt P15692 27-191)
T1 construct: mature; Isoform VEGF165 of the entry; also called hVEGF165; hVEGF
T1 sequence (P15692 other isoform, or with tags, fused parts or gaps): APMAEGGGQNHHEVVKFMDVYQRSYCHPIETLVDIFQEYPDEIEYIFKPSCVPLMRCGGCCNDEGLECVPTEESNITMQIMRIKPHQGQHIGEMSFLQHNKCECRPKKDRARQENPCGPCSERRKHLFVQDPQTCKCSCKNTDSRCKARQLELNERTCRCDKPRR
Test: Biacore SPR, VEGF immobilized, pH 5
Quantity Name: kon (M⁻¹ s⁻¹)
One number for each entry, in M⁻¹ s⁻¹.

The examples below pair each entry with its known result.
578-max (scFv, also called EP578max; #821) scFv: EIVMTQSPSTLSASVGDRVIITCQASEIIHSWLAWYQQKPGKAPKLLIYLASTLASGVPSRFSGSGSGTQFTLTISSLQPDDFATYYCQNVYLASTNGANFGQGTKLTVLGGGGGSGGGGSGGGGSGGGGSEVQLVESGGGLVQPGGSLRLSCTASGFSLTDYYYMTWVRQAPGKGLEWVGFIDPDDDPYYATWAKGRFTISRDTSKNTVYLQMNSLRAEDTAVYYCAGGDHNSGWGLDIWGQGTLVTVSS = 700000
578-min (scFv, also called EP578 min; Protein Nr; 820) scFv: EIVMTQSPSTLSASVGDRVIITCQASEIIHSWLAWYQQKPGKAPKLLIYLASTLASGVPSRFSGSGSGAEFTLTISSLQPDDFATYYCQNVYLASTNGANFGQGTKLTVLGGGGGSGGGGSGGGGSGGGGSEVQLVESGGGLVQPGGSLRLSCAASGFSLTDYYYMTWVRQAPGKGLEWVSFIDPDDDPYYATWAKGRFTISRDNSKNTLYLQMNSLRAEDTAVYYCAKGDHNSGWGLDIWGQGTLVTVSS = 1.14e+06
509-min (scFv, VL and VH tied by name; also called Protein Nr; 854) scFv: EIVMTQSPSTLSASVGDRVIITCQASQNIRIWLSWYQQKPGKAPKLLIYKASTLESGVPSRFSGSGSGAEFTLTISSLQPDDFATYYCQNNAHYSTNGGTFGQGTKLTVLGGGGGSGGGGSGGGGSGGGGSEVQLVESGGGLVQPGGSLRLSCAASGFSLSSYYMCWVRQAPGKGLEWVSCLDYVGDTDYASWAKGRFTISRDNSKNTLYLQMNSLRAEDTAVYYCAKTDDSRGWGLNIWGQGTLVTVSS = 623000
511-max (scFv, also called ESBA802) scFv: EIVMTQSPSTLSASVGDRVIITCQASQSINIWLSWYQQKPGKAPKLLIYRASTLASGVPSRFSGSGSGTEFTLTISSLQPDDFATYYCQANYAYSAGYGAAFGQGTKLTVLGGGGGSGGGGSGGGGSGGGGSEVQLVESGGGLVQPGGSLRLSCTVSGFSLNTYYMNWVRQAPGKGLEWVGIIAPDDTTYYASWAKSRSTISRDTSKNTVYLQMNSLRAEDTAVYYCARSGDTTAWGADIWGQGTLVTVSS = 659000

Turning now to a further binder:
[ask] Give the measured kon of 567-min (scFv, also called Protein Nr; 884) scFv: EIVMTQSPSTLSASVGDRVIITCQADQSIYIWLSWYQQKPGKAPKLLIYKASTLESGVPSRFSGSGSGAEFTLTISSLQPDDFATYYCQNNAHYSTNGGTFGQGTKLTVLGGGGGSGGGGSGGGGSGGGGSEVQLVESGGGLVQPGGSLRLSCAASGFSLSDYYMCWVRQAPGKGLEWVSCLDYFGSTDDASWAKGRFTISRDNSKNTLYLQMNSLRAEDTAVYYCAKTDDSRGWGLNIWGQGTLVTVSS .
[reply] 2.01e+06
